Data origin: patent US10532984B2

# System: P. aeruginosa PA01
# test-details: Combined antibacterial effect with drug efflux pump inhibitor PAβN, broth microdilution MIC
# Format: cell-based
# measurement-conditions: P. aeruginosa PA01, with PAβN 50 μg/mL
quantity: MIC value P. aeruginosa PA01 PAβN + (µg/mL)

CNC1CN(c2c(F)c(C)c3c(=O)c(C(=O)O)cn(-c4cc(N)c(F)cc4CO)c3c2Cl)C1 [Example 104]: 0.016
Cc1c(F)c(N2CC(N)C2)c(C)c2c1c(=O)c(C(=O)O)cn2-c1cc(N)c(F)cc1CO [Example 100]: 0.016
C[C@H]1COc2c(N3CCN(C)CC3)c(F)cc3c(=O)c(C(=O)O)cn1c23 [Levofloxacin, levofloxacin, reference compound]: 0.06
CO/N=C(\C(=O)N[C@@H]1C(=O)N2C(C(=O)[O-])=C(C[N+]3(C)CCCC3)CS[C@H]12)c1csc(N)n1 [Cefepime, cefepime, reference compound]: 0.5
CNC1CN(c2c(F)cc3c(=O)c(C(=O)O)cn(-c4cc(N)c(F)cc4CO)c3c2C)C1 [Example 70]: 0.25

====

# Test system: MRSA9532
# test-details: Antibacterial effect, MIC by standard method of Japanese Society of Chemotherapy
# Type: cell-based, methicillin-resistant Staphylococcus aureus
# measurement-conditions: Staphylococcus aureus
quantity: MIC (µg/mL)

CNC1CN(c2c(F)c(C)c3c(=O)c(C(=O)O)cn(-c4cc(N)c(F)cc4CO)c3c2Cl)C1: 1
CNC1CN(c2c(F)cc3c(=O)c(C(=O)O)cn(-c4cc(N)c(F)cc4F)c3c2Cl)C1: 2
Cc1c(F)c(N2CC(O)C2)c(Cl)c2c1c(=O)c(C(=O)O)cn2-c1cc(N)c(F)cc1CO: 1
Nc1cc(-n2cc(C(=O)O)c(=O)c3cc(F)c(N4CC(N)C4)c(Cl)c32)c(F)cc1F: 4

====

# System: P. aeruginosa 08-05
# test-details: Combined antibacterial effect with drug efflux pump inhibitor PAβN, broth microdilution MIC
# Type: cell-based
# measurement-conditions: P. aeruginosa 08-05, with PAβN 50 μg/mL
# key: entry, value: MIC value P. aeruginosa 08-05 PAβN +
quantity: MIC value P. aeruginosa 08-05 PAβN + (µg/mL)

CNC1CN(c2c(F)c(C)c3c(=O)c(C(=O)O)cn(-c4cc(N)c(F)cc4CO)c3c2Cl)C1 [Example 104]: 0.06
CO/N=C(\C(=O)N[C@@H]1C(=O)N2C(C(=O)[O-])=C(C[N+]3(C)CCCC3)CS[C@H]12)c1csc(N)n1 [Cefepime, cefepime, reference compound]: 2
C[C@H]1COc2c(N3CCN(C)CC3)c(F)cc3c(=O)c(C(=O)O)cn1c23 [Levofloxacin, levofloxacin, reference compound]: 0.12
CNC1CN(c2c(F)cc3c(=O)c(C(=O)O)cn(-c4cc(N)c(F)cc4CO)c3c2C)C1 [Example 70]: 0.25
Cc1c(F)c(N2CC(N)C2)c(C)c2c1c(=O)c(C(=O)O)cn2-c1cc(N)c(F)cc1CO [Example 100]: 0.06

====

# Tested on: C. difficile 2015-13
# test-details: Antibacterial effect, MIC by standard method of Japanese Society of Chemotherapy
# Format: cell-based
# measurement-conditions: Clostridioides difficile, 201513; C. difficile 2015-13, clinical isolate
# key: entry, value: MIC
quantity: MIC

C[C@H]1COc2c(N3CCN(C)CC3)c(F)cc3c(=O)c(C(=O)O)cn1c23 [Levofloxacin, levofloxacin, reference compound]: > 128 mg/L
Cc1c(F)c(N2CC(O)C2)c(Cl)c2c1c(=O)c(C(=O)O)cn2-c1cc(N)c(F)cc1CO: 0.06 mg/L
CNC1CN(c2c(F)cc3c(=O)c(C(=O)O)cn(-c4cc(N)c(F)cc4F)c3c2Cl)C1: 4 mg/L
Nc1cc(-n2cc(C(=O)O)c(=O)c3cc(F)c(N4CC(N)C4)c(Cl)c32)c(F)cc1F: 8 mg/L
CNC1CN(c2c(F)c(C)c3c(=O)c(C(=O)O)cn(-c4cc(N)c(F)cc4CO)c3c2Cl)C1: 0.5 mg/L
